target: Beta-1 adrenergic receptor (Homo sapiens, UniProt P08588); type: functional; further: assay procedure not described here
Sequence (P08588 whole entry): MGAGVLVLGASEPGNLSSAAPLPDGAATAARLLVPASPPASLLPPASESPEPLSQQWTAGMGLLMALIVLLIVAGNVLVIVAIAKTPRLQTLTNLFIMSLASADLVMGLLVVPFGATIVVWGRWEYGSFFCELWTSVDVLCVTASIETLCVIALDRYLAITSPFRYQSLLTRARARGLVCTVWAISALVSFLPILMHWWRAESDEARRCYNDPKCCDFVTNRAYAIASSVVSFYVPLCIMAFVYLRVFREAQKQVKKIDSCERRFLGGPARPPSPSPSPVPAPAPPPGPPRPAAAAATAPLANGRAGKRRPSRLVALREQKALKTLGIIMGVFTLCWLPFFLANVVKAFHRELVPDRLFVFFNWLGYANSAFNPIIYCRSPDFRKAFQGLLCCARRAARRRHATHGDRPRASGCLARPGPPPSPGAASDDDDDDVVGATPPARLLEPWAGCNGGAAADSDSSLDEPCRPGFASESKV
AC50 for assorted compounds

• CC[C@H]1OC(=O)[C@H](C)[C@@H](O[C@H]2C[C@@](C)(OC)[C@@H](O)[C@H](C)O2)[C@H](C)[C@@H](O[C@@H]2O[C@H](C)C[C@H](N(C)C)[C@H]2O)[C@](C)(O)C[C@@H](C)CN(C)[C@H](C)[C@@H](O)[C@]1(C)O = > 10 µM
• CN(C)CCC=C1c2ccccc2C(C)(C)c2ccccc21 = 5.2 µM
• CN1C(C(=O)Nc2ccccn2)=C(O)c2sc(Cl)cc2S1(=O)=O = > 30 µM
• C[C@@H]1O[C@@H](O[C@@H]2C=C3CC[C@@H]4[C@H](CC[C@]5(C)[C@@H](c6ccc(=O)oc6)CC[C@]45O)[C@@]3(C)CC2)[C@H](O)[C@H](O)[C@H]1O = > 30 µM
• CC(C)OC(=O)CCC/C=C\C[C@@H]1[C@@H](CC[C@@H](O)CCc2ccccc2)[C@H](O)C[C@@H]1O = > 30 µM
• C[C@@H](O)[C@H]1C(=O)N2C(C(=O)O)=C(S[C@@H]3CN[C@H](C(=O)N(C)C)C3)[C@H](C)[C@H]12 = > 300 µM

The recorded AC50 for entry `CN(C)/N=N/c1[nH]cnc1C(N)=O` equals > 10 µM

Item: `CC(C)(C)c1cc(C(C)(C)C)c(NC(=O)c2c[nH]c3ccccc3c2=O)cc1O` | AC50: > 10 µM

Just so you know, measured AC50 for O=C(O)[C@H](CC(=O)N1C[C@H]2CCCC[C@H]2C1)Cc1ccccc1 [MITIGLINIDE] came out at > 10 µM

# AC50 (compound: `CCOc1ccc(Cc2cc([C@@H]3O[C@H](CO)[C@@H](O)[C@H](O)[C@H]3O)ccc2Cl)cc1` ) is > 10 µM

For COCCCN1CCC(NC(=O)c2cc(Cl)c(N)c3c2OCC3)CC1 [PRUCALOPRIDE] the compound record lists AC50 as > 30 µM

GET /value?item= CCCN1C[C@H](CSC)C[C@@H]2c3cccc4[nH]cc(c34)C[C@H]21 [PERGOLIDE] &field=AC50 returns > 30 µM

Note to self: AC50 recorded for `CC=CC(=O)N(CC)c1ccccc1C` was > 10 µM

Entry under test: `Cc1cn([C@H]2C=C[C@@H](CO)O2)c(=O)[nH]c1=O` . Its AC50 was > 10 µM

Entry NC(=O)CN1CC(O)CC1=O (stereo not drawn) ; AC50 = > 30 µM

Note to self: AC50 recorded for CNC1Cc2ccccc2N(C)c2ccccc21 (stereo not drawn) was > 30 µM

// recorded AC50 for Cn1nnc2c(C(N)=O)ncn2c1=O [TEMOZOLOMIDE] : > 30 µM

response.value for CNC(C)CCC=C(C)C (stereo not drawn) (field: AC50) = > 30 µM

What the record says about `COc1ccc(-c2ccc3cc(C(=O)O)ccc3c2)cc1C12CC3CC(CC(C3)C1)C2` : AC50 is > 30 µM

Lab book: AC50 of `CC[C@H]1[C@@H](O)[C@@H]2[C@H](CC[C@]3(C)[C@@H]([C@H](C)CCC(=O)O)CC[C@@H]23)[C@@]2(C)CC[C@@H](O)C[C@@H]12` noted as > 30 µM

The value of AC50 measured for the compound `CC(C)=CCC/C(C)=C/C=C/C(C)=C/C=C/C(C)=C/C=C/C=C(C)/C=C/C=C(C)/C=C/C=C(\C)CCC=C(C)C` turned out to be > 30 µM

Per the records, this compound ( `CC(=O)O[C@H]1C[C@@H]2CC[C@@H]3[C@H](CC[C@@]4(C)[C@H]3C[C@H]([N+]3(C)CCCCC3)[C@@H]4OC(C)=O)[C@@]2(C)C[C@@H]1N1CCCCC1` ) has AC50 equal to > 30 µM

// Cc1cccc(C(C)c2cnc[nH]2)c1C (stereo not drawn) : AC50 value = > 30 µM

* * *

molecular target: UniProtKB P30542
Sequence (P30542 whole entry): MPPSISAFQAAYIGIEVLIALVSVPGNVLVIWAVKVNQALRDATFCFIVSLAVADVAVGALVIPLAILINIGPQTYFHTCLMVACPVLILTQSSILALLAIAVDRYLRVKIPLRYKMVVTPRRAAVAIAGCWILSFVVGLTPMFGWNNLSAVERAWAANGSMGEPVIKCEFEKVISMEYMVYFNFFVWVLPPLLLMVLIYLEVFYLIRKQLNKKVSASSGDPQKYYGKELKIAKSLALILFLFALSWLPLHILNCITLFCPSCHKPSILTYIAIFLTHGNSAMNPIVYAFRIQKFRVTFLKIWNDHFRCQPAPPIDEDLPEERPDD
Each entry below lists one item and its recorded AC50 value.

# example entries with known answers
- O=C(O)/C=C/c1ccc(Cn2ccnc2)cc1 [OZAGREL]: > 30 µM
- C[C@]1(O)CC[C@H]2[C@@H]3CCC4=CC(=O)CC[C@]4(C)[C@@]3(F)[C@@H](O)C[C@@]21C [FLUOXYMESTERONE]: > 10 µM
- CC(=O)O[C@H]1C[C@@H]2CC[C@@H]3[C@H](CC[C@@]4(C)[C@H]3C[C@H]([N+]3(C)CCCCC3)[C@@H]4OC(C)=O)[C@@]2(C)C[C@@H]1N1CCCCC1 [VECURONIUM]: > 30 µM
- COc1ccc2c3c1O[C@H]1C(=O)CC[C@@]4(O)[C@@H](C2)N(C)CC[C@]314 [OXYCODONE]: > 30 µM

Data point: COc1ccc(CCNCC(O)COc2cccc(C)c2)cc1OC (stereo not drawn) [BEVANTOLOL] ; AC50 = > 10 µM

Reported AC50 of Clc1ccc2nsnc2c1NC1=NCCN1 [TIZANIDINE] : > 30 µM

Value of measured AC50 for the entry `CCC(CC)(CC(=O)Nc1cccc(/C=C/c2nc(C3CCC3)cs2)c1)C(=O)O` : > 30 µM

The compound CC(C)C(=O)c1c(C(C)C)nn2ccccc12 [IBUDILAST] showed AC50 equal to 20 µM

* * *

Target: Alpha-1A adrenergic receptor (Homo sapiens, UniProt P35348); further: assay procedure not described here
Sequence (P35348 whole entry): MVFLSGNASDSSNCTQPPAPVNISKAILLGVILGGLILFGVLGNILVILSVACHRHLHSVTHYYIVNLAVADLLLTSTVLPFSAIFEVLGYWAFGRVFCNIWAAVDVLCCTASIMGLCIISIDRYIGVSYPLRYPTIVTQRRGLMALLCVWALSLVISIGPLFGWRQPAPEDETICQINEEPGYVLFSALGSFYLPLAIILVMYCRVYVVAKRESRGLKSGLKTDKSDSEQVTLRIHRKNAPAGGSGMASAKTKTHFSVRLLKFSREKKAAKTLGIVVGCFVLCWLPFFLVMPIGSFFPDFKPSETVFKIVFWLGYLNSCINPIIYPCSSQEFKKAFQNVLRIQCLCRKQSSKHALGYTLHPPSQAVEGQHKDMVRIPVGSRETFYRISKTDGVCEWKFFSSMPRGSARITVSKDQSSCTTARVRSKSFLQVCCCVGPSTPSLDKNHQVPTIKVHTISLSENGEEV
Format: functional, cell-based
Let's look at some compounds and their measured AC50.

- CC[C@@H](C(N)=O)N1CCCC1=O: > 30 µM
- CCCNC(C)C(=O)Nc1c(C)csc1C(=O)OC (stereo not given): > 30 µM
- Clc1ccc(C(OCCN2CCCCC2)c2ccccc2)cc1 (stereo not given): 1.27 µM
- CCCCCNC(=N)N/N=C/c1c[nH]c2ccc(OC)cc12: 1.16 µM
- Oc1c(Cl)cc(Cl)c2cccnc12: > 30 µM

Form field, AC50 with Alpha-1A adrenergic receptor (Homo sapiens, UniProt P35348), item `CC(=O)Oc1c(C)c(C)c2c(c1C)CC[C@@](C)(CCC[C@H](C)CCC[C@H](C)CCCC(C)C)O2` : > 30 µM

Alpha-1A adrenergic receptor (Homo sapiens, UniProt P35348) data for `O=C(O)c1ccccc1C(=O)Nc1ccc(S(=O)(=O)Nc2nccs2)cc1` ; its AC50: > 30 µM

Record NC1=NCC2c3ccccc3Cc3ccccc3N12 (stereo not given) [EPINASTINE] has Alpha-1A adrenergic receptor (Homo sapiens, UniProt P35348) AC50 equal to 2.53 µM

Record `Cc1cccc(Nc2ccccc2C(=O)O)c1C` has Alpha-1A adrenergic receptor (Homo sapiens, UniProt P35348) AC50 equal to > 30 µM

Let me check: CCOC(=O)/C=C1\SC(N2CCCCC2)C(=O)N1C (stereo not given) , system Alpha-1A adrenergic receptor (Homo sapiens, UniProt P35348), measured AC50 is > 30 µM

Response field AC50 (Alpha-1A adrenergic receptor (Homo sapiens, UniProt P35348)) for item `COC(c1ccccc1)(c1ccccc1)[C@H](Oc1nc(C)cc(C)n1)C(=O)O` : > 30 µM

Tested on Alpha-1A adrenergic receptor (Homo sapiens, UniProt P35348), the item `Nc1ccncc1N` showed AC50 equal to > 30 µM

Alpha-1A adrenergic receptor (Homo sapiens, UniProt P35348) data for `Cc1cn([C@H]2C=C[C@@H](CO)O2)c(=O)[nH]c1=O` ; its AC50: > 30 µM

Alpha-1A adrenergic receptor (Homo sapiens, UniProt P35348) AC50 of Cc1cc(OP(=O)(O)O)c2ccccc2c1OP(=O)(O)O [MENADIOL SODIUM DIPHOSPHATE] is > 30 µM

Entry `CN(C)[C@@H](c1cccc(O)c1)[C@H]1CCCC[C@H]1O` , tested on Alpha-1A adrenergic receptor (Homo sapiens, UniProt P35348), has a reported AC50 of > 30 µM

Measured on Alpha-1A adrenergic receptor (Homo sapiens, UniProt P35348), COc1ccc(C(=O)Nc2ccccc2CCC2CCCCN2C)cc1 (stereo not given) [ENCAINIDE] has a documented AC50 of > 30 µM

Per the reported Alpha-1A adrenergic receptor (Homo sapiens, UniProt P35348) data, `CS(=O)(=O)c1ccc(C2=C(c3ccccc3)C(=O)OC2)cc1` has AC50 of > 30 µM

Tested on Alpha-1A adrenergic receptor (Homo sapiens, UniProt P35348), the item `O=[N+]([O-])c1cn2c(n1)OC[C@@H](OCc1ccc(OC(F)(F)F)cc1)C2` showed AC50 equal to > 10 µM

Entry `CCOC(=O)[C@H](CCc1ccccc1)N[C@@H](C)C(=O)N1[C@H](C(=O)O)C[C@H]2CCCC[C@@H]21` , Alpha-1A adrenergic receptor (Homo sapiens, UniProt P35348) data, AC50 value: > 30 µM

Measured on Alpha-1A adrenergic receptor (Homo sapiens, UniProt P35348), `CC(C)COC(=O)OCN1C(=O)CN(CCN2CC(=O)N(COC(=O)OCC(C)C)C(=O)C2)CC1=O` has a documented AC50 of > 30 µM

Simply: CCN1CCCC1CNC(=O)c1cc(S(N)(=O)=O)ccc1OC (stereo not given) [SULPIRIDE] , Alpha-1A adrenergic receptor (Homo sapiens, UniProt P35348), AC50 = > 30 µM

Entry `CC(=O)c1ccc2c(c1)N(CCCN(C)C)c1ccccc1S2` , Alpha-1A adrenergic receptor (Homo sapiens, UniProt P35348) data, AC50 value: 0.003 µM

Bench note, Alpha-1A adrenergic receptor (Homo sapiens, UniProt P35348): entry `CC[C@H]1[C@@H](O)[C@@H]2[C@H](CC[C@]3(C)[C@@H]([C@H](C)CCC(=O)O)CC[C@@H]23)[C@@]2(C)CC[C@@H](O)C[C@@H]12` , its AC50 = > 30 µM

Value (AC50, Alpha-1A adrenergic receptor (Homo sapiens, UniProt P35348)) for record O=C(Cc1ccc(-c2ccccc2)cc1)Nc1ccccn1 [DIFENPIRAMIDE] = > 10 µM
